Listed next: entries and their corresponding % Reactivity.
tested on: 1,2-propanediol dehydrogenase; assay: Substrate specificity of the enzyme on analogs of 1,2-propanediol using NAD; type: biochemical, Neisseria; settings: substrate with NAD; relative to 1,2-propanediol = 100

| Compound | % Reactivity |
| --- | --- |
| OCCO | 0% |
| OCCCO | 0% |
| CCC(O)CO (stereo not shown) | 10% |
| CCO | 0% |
| CC(C)O | 0% |
| CC(O)CO (stereo not shown) | 100% |
| OCC(O)CCl (stereo not shown) | 0% |
| OCC(O)CO | 1% |
| CCCO | 0% |
| O=C(CO)CO [Dihydroxyacetone] | 21% |
